ASSAY INFO: folding stability dG unfold (combined trypsin and chymotrypsin); higher = more stable
# folding stability dG unfold >= 1 kcal/mol gives criterion met, anything below gives criterion not met

- SAGGMEIKIEKEGNKIKITIKNENGEIEEFEITLKDGKKYRIIIDKDNPNTIYIVDEKTGKTIVLKASAGGS [r16_198_TrROS_Hall]: criterion met
- SAGGSAGGSMKEGTFNSEEEVEELKKKYPNVEVYEDPETNTIHVKIKEESEKEYEEENIKKLKSAGGSAGGS [r20_191_JUSTAS]: criterion not met
- SAGGSAGGSMKTKTIEIEIDGKKVRITIDSDGNITIEVPSEEVKEALKKLLPPGVKITKIEPVSAGGSAGGS [r12_9_TrROS_Hall]: criterion met
- SAGGSAGGSAGGGSMDELPEIEEIAYVTDPATGAVTTVPASQVPEVLASTNNTVTIRPVSAGGSAGGSAGGS [r10_1121_JUSTAS]: criterion not met
- SAGGSAGGSAMPPLISTTPILGEEPGKRLVREIVTLPDGSLIELTYDEDGNVIESKKYIVGKSAGGSAGGSA [r18_467_JUSTAS]: criterion not met
- SAGGSAGPMPSTVTTLATAPLPDGTLVVTTLERTPDSVTRTTTTYKPADGSPLGTASTTYPAPAALSAGGSA [r15_716_JUSTAS]: criterion not met
- SAGGSAGGSMYIVNIKFYNPKTGKVLYIPIKTKKEKAEEIAKELAKKLPEIKYIKAEIKPDISSAGGSAGGS [r12_757_TrMRF]: criterion met
- SAGGSAGGSLSDLPPGVELIAVGDDVVAVRRPDGSVLVFVRERDRVFVRELSPDVSIEEALADSAGGSAGGS [r12_605_TrMRF]: criterion met
- SAGGSAGGSAGGNKEVEIPIMIYWPDPNGKPNMHTVEIDMPNNDLPDIKDWAEDNPWTIMSAGGSAGGSAGG [r7_539_TrROS]: criterion not met
- SAGGEVRLRLEAELLPDGTLVLRGRVEVRVGDRVFEFEFELVLRLEPVPPPPAPARPLLIPERLLDASAGGS [r8_269_TrMRF]: criterion met
- SAGGSAGGSAGGPLKVEVIGSIEGDDRVYVLTRVPGVGGLFVAEYEKPSGKILSVSPVPLSAGGSAGGSAGG [r7_154_TrMRF]: criterion met
- SAGMMKVRIKIEVTRVEYDEETGELKEETRTIEIPIEAESEEEAEELAKKLAEELPEEEVKIVEIEPLSAGG [r19_209_TrROS_Hall]: criterion met
- MEPPPVVVLEIEIEVPAEDEELRNMTAEELAARLAEELEALPGLKVVSVEVVEVEERPDGTLRVRIRVTIES [r1_484_TrROS_Hall]: criterion met
- GMRPVTATIEIGPNGKLTLQPAVGPSTVVPVKSKEEGIAVVKELVPPDRPITLTFYEKSKKISTEPIEIPPS [r1_276_JUSTAS]: criterion not met
- SAGGSAGGSAGGSKSIYISPDDPNNIRTPDDGEPFKGMPIEEAKKEGIEPRGPNAFRIPSAGGSAGGSAGGS [r4_306_TrROS]: criterion not met
- SAGSMEALRALAEELAAEIAAAARAAGREVEVDITEVRPGEVRIRVTTTPPGGERTVEDIEIALPEERLSAG [r5_994_JUSTAS]: criterion met
- SAGGSAGGSAGGSKTVLLKVNGKLVLKELKVEVELEAEPETTTTTTTTTTLKPGETKTLSAGGSAGGSAGGS [r4_215_TrROS_Hall]: criterion not met
- SAGGSAGGSAGGLTEEEILKKLGLSPDVELLEMPREPERGVYYVKVKKGEGPEEFVVEESAGGSAGGSAGGS [r10_17_JUSTAS]: criterion not met
- KSKEEQKEQQEEQQKPPPVEIKVEVEVVKSPNGNPYFQFNVEYYDPGDGEPIGEITISVPPDDVDELADEFS [r1_415_TrROS]: criterion met
- SAGGKMKTVKVTITDKDGRKIEIVDVTVKDNKVYVVVKDKKTKKTIVLEFDTKEEAEEAIKKLLEAKSAGGS [r16_736_TrROS_Hall]: criterion met
